Experiment: Pharmacokinetic studies / bioavailability in rats
Format: in vivo, rat
Settings: female, rat, plasma, po, 10 mg/kg, rat female; p.o. 10 mg/kg; 5 mg/ml solution in 10% DMSO 10% cremophor 80% saline
Exercise: state measured Cmax for each of the compounds provided.
Give me the value, and tack the unit on after it.

[ask] Give its Cmax value. Item: COc1cccc(OC)c1NC(=O)c1ccc(Cc2c(C)c(C)c(Br)c(C)c2C)o1
[reply] 420 nM

[ask] For COc1cccc(OC)c1NC(=O)c1ccc(Cc2c(C)cc(C)cc2C)o1 , what is its reported Cmax?
[reply] 20 nM

[ask] Which Cmax reading was recorded for the compound COc1cc(OC)c(NC(=O)c2ccc(Cc3c(C)ccc4c3OCCC4(C)C)o2)c(OC)c1 ?
[reply] 810 nM

[ask] # Cmax lookup, item COc1cccc(OC)c1NC(=O)c1ccc(Cc2c(C)c(C)cc(C)c2C)o1
[reply] 340 nM
